System: U251 CNS
Assay: NCI tumour cell line growth inhibition, 48 h
REPORTED_ENDPOINT: TGI

molecule="NC(=O)CC(Nc1ncc2c(n1)-c1ccccc1OC2)C(=O)O (stereo unspecified)" val="> 100 µM"
molecule=Oc1ccc(Br)cc1Sc1cc(Br)ccc1O val="18.4 µM"
molecule="Cc1cc(S(=O)(=O)Nc2nc(N)nc(N3N=CCC3C)n2)c(S)cc1Cl (stereo unspecified)" val="> 10 µM"
molecule=O=C(NCCNCCO)N/N=C/c1ccc(Cl)cc1 val="> 100 µM"
molecule=O=C(/C=C/c1ccc([N+](=O)[O-])cc1)c1nc2ccccc2[nH]1 val="> 100 µM"
molecule=Cc1nc2ccc(C(F)(F)F)cc2nc1Nc1ccc(Cl)c(Cl)c1 val="19.4 µM"

* * *

Test system: HCC-2998 colon
Experiment: NCI tumour cell line growth inhibition, 48 h; in the data active = GI50 below about 0.43 µM; inactive = the rest
Labels: Y for active, N for inactive

molecule_smiles=C[CH2][Sn]1([CH2]C)[O]C(=O)[O][Sn]([CH2]C)([CH2]C)[O]1 class_name=N
molecule_smiles=O=C(Nc1ccccc1C(F)(F)F)c1cccc(NC2=C(Cl)C(=O)N(Cc3ccccc3)C2=O)c1 class_name=N
molecule_smiles=CN1CCN(Cc2ccc(NC(=O)c3cncc(C#Cc4cnc(N)c5ccc(F)cc45)c3)cc2C(F)(F)F)CC1 class_name=N
molecule_smiles=CC[N+](CC)=c1ccc2nc3c(cc(N)c4ccccc43)oc-2c1 class_name=Y
molecule_smiles=O=C1c2cc(Br)ccc2-c2c1c1ccc([N+](=O)[O-])cc1c(=O)n2CCCCl class_name=N

* * *

Tested on: SR leukemia
Assay: NCI tumour cell line growth inhibition, 48 h
REPORTED_ENDPOINT: TGI

compound=O=C(NCCO)c1ccc(Cl)cc1 val="> 100 µM"
compound=O=C(NCCNCCO)N/N=C/c1ccc(Cl)cc1 val="> 100 µM"
compound=CCCCSc1n/c(=C\c2ccc(N(C)C)cc2)c2nnnn12 val="> 100 µM"
compound=O=C(/C=C/c1ccc([N+](=O)[O-])cc1)c1nc2ccccc2[nH]1 val="11.3 µM"
compound="O=C(O)C1CCc2ccc3ccccc3c2C1c1cccc2ccccc12 (stereo unspecified)" val="49.9 µM"
compound=COc1ccc2c(c1)CCc1c-2n(CCN(C)C)c2ccc(OC)cc12 val="> 100 µM"

* * *

Test system: CAKI-1 renal
Test: NCI tumour cell line growth inhibition, 48 h
As shown below, each of these compounds has a reported TGI value.
REPORTED_ENDPOINT: TGI (µM)

compound="COC(=O)c1cncc2c1CC1C3(C(=O)OC)C=NC(C4C(CO)=CCC43)C21C (stereo not given)" inequality_sign=> val=100
compound="COc1ccc(NC2Oc3cc4c(cc3C(c3cc(OC)c(O)c(OC)c3)C2C)OCO4)cc1 (stereo not given)" inequality_sign== val=30
compound="COC(=O)C1(C(=O)OC)N=C(C)OC1C(C)C (stereo not given)" inequality_sign=> val=100
compound="COC1=CC23C=CC1[C@@H](c1ccccc1)C2=C(C)C(=O)N3C(=O)NC1CCCCC1 (stereo not given in full)" inequality_sign== val=45.1
compound=O=c1[nH]nc(Cc2ccc(Cl)cc2)n1O inequality_sign=> val=100

* * *

Recorded GI50 for the following compounds
Tested on: MALME-3M melanoma
Test: NCI tumour cell line growth inhibition, 48 h
REPORTED_ENDPOINT: GI50

compound=COc1cc(-c2cnn(C)c2)ccc1Nc1ncc2ccnc(N[C@@H](C)C(C)(C)C)c2n1 study_target="MALME-3M melanoma" reported_endpoint=GI50 val="> 66 µM"
compound="COc1cc(OC2OC(C)C(O)C(O)C2O)cc2oc(-c3ccc(O)cc3)c(CC=C(C)C)c(=O)c12 (configuration not stated)" study_target="MALME-3M melanoma" reported_endpoint=GI50 val="15.5 µM"
compound="C=CC(=O)N1CCCC(n2nc(-c3ccc(Oc4ccccc4)cc3)c3c(N)ncnc32)C1 (configuration not stated)" study_target="MALME-3M melanoma" reported_endpoint=GI50 val="12.4 µM"
compound=COC(=O)CCC/C=C\C[C@H]1C=CC(=O)/C1=C/C[C@@H](O)CCc1cccc(C(F)(F)F)c1 study_target="MALME-3M melanoma" reported_endpoint=GI50 val="2.47 µM"
compound=c1ccc2c(c1)[I+]c1ccccc1-2 study_target="MALME-3M melanoma" reported_endpoint=GI50 val="> 50 µM"
compound=Cc1ccc(C(=O)c2oc3ccc4c(C)cc(=O)oc4c3c2C)cc1 study_target="MALME-3M melanoma" reported_endpoint=GI50 val="25.7 µM"
compound=CC1(C)C=CC[C@]2(C)[C@H]3CC[C@@H]4[C@H]5[C@H](C(=O)/C=C/c6cccnc6)CC[C@]5(CO)CC[C@@]4(C)[C@]3(C)CC[C@@H]12 study_target="MALME-3M melanoma" reported_endpoint=GI50 val="1.38 µM"
